Target sequence: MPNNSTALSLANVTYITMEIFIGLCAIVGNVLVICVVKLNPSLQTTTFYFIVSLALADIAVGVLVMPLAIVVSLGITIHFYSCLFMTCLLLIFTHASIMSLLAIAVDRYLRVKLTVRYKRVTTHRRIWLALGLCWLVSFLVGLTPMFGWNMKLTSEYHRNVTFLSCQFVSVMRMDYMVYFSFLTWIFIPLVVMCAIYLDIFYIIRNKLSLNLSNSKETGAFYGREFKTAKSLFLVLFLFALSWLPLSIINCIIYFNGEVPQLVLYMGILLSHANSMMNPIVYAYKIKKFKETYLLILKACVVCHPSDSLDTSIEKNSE
Metric: Ki

Bench note: what Ki did CNC(=O)[C@@]12C[C@@H]1[C@@H](n1cnc3c(NC)nc(C#Cc4ccc(F)cc4)nc31)[C@H](O)[C@@H]2O [Compound 13] show?
~0.6 nM

---

target: hA1AR (Homo sapiens)
Sequence (P30542 whole entry): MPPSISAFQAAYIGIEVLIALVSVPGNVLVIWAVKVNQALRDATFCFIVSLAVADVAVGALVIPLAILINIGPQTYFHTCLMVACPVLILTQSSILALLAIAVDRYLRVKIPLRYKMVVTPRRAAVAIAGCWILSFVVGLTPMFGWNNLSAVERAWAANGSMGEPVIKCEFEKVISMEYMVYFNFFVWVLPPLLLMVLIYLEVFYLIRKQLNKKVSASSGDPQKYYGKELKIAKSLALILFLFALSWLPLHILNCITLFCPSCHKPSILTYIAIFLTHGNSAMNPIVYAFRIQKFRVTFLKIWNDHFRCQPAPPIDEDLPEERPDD
pKi: −log10 of the molar value.
Metric: pKi

Param item = CNC(=O)[C@@]12C[C@@H]1[C@@H](n1cnc3c(NCc4cccc(Cl)c4)nc(C#Cc4ccccc4)nc31)[C@H](O)[C@@H]2O ; retrieve measured pKi.
< 5.00
